molecular target: CXCR4 (Homo sapiens); test: Binding affinity assay on CXCR4 receptor protein (inhibition of 12G5 monoclonal antibody binding, CHO cells stably transfected with CXCR4); set-up: expressed in transfected cells; host or cells: CHO cells, stably transfected (G418 selection); conditions: 40 min; 0.1 μM compound; inhibition of 12G5 antibody binding to CXCR4 on CHO-CXCR4 cells; read-out: Inhibition ratio interval of compounds at 0.1 μM
Sequence (P61073 whole entry): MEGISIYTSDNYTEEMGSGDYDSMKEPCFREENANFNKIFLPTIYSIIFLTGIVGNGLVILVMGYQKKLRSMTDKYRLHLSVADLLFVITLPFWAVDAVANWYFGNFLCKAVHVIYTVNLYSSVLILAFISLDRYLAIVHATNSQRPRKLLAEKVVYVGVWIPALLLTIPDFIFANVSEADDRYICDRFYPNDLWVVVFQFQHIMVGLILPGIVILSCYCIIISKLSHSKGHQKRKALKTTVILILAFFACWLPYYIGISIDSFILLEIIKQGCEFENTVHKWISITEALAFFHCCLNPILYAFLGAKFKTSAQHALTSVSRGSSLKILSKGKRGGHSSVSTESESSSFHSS
Assay Endpoint: inhibition at 0.1 µM

As a guide, the following entries are already answered.
Molecule | Measured Target | Assay Endpoint | Result Value
NCCCC[C@H](NCc1ccccn1)C(=O)NCc1ccc(CNCCCNC2CCCCC2)cc1 | CXCR4 (Homo sapiens) | inhibition at 0.1 µM | 75 to 100%
O=C(NCc1ccc(CNCCCNC2CCCCC2)cc1)[C@H](CCCCNC1CCCCC1)NCc1ccccn1 | CXCR4 (Homo sapiens) | inhibition at 0.1 µM | 75 to 100%
O=C(NCc1ccc(CNCCCNC2CCCCC2)cc1)[C@@H]1Cc2ccccc2CN1Cc1ccccn1 | CXCR4 (Homo sapiens) | inhibition at 0.1 µM | 75 to 100%
CN(C)c1ccc(CN[C@@H](CCCNC(=N)N)C(=O)NCc2ccc(CNCCCNC3CCCCC3)cc2)cc1 | CXCR4 (Homo sapiens) | inhibition at 0.1 µM | 75 to 100%

Ask: Supply inhibition at 0.1 µM measured with CXCR4 (Homo sapiens) for CC(C)NCCCC[C@H](NCc1ccccn1)C(=O)NCc1ccc(CNCCCNC2CCCCC2)cc1 .
Reply: 75 to 100%

Ask: Supply inhibition at 0.1 µM measured with CXCR4 (Homo sapiens) for O=C(NCc1ccc(CNCCCNC2CCCCC2)cc1)[C@H](CO)NCc1ccccn1 .
Reply: 75 to 100%

Ask: Supply inhibition at 0.1 µM measured with CXCR4 (Homo sapiens) for N=C(N)NCCC[C@H](NCc1cc(C(F)(F)F)cc(C(F)(F)F)c1)C(=O)NCc1ccc(CNCCCNC2CCCCC2)cc1 .
Reply: 0 to 24%

Ask: Supply inhibition at 0.1 µM measured with CXCR4 (Homo sapiens) for N=C(N)NCCC[C@H](NCC1CCCCC1)C(=O)NCc1ccc(CNCCCNC2CCCCC2)cc1 .
Reply: 75 to 100%

Ask: Supply inhibition at 0.1 µM measured with CXCR4 (Homo sapiens) for N=C(N)NCCC[C@H](NCc1cccc2ccccc12)C(=O)NCc1ccc(CNCCCNC2CCCCC2)cc1 .
Reply: 50 to 74%

Ask: Supply inhibition at 0.1 µM measured with CXCR4 (Homo sapiens) for O=C(NCc1ccc(CNCCCNC2CCCCC2)cc1)[C@H](Cc1c[nH]cn1)NCc1ccccn1 .
Reply: 75 to 100%

Ask: Supply inhibition at 0.1 µM measured with CXCR4 (Homo sapiens) for CC(C)C[C@H](NCc1ccccn1)C(=O)NCc1ccc(CNCCCNC2CCCCC2)cc1 .
Reply: 25 to 49%

Ask: Supply inhibition at 0.1 µM measured with CXCR4 (Homo sapiens) for O=C(NCc1ccc(CNCCCNC2CCCCC2)cc1)[C@H](Cc1c[nH]c2ccccc12)NCc1ccccn1 .
Reply: 75 to 100%

----------
molecular target: CXCR4 (Homo sapiens); test: Binding affinity assay on CXCR4 receptor protein (inhibition of 12G5 monoclonal antibody binding, CHO cells stably transfected with CXCR4); design: expressed in transfected cells; host or cells: CHO cells, stably transfected (G418 selection); details: 40 min; 0.1 μM compound; inhibition of 12G5 antibody binding to CXCR4 on CHO-CXCR4 cells; read-out: Inhibition ratio interval of compounds at 0.1 μM
Assay Endpoint: inhibition at 0.1 µM

Compound | inhibition at 0.1 µM
N=C(N)NCCC[C@H](NC1CCCCC1)C(=O)NCc1ccc(CNCCCNC2CCCCC2)cc1 | 50 to 74%
N=C(N)NCCC[C@H](NCc1ccccn1)C(=O)NCc1ccc(CNC2CCCCC2)cc1 | 0 to 24%

Ask: Identify the reported inhibition at 0.1 µM for the following entry. N=C(N)NCCC[C@H](NCc1ncc[nH]1)C(=O)NCc1ccc(CNCCCNC2CCCCC2)cc1
Reply: 50 to 74%

Ask: Identify the reported inhibition at 0.1 µM for the following entry. O=C(O)C[C@H](NCc1ccccn1)C(=O)NCc1ccc(CNCCCNC2CCCCC2)cc1
Reply: 50 to 74%
